System: Wolbachia pipientis
method.description: Anti-Wolbachia Cell-Based Screen
Format: functional
Parameters: scale not given: in the data most compounds retested in dose-response had high values
conditions: 5 µM
About 13,000 (27%) of roughly 48,000 compounds showed an effect of 50% or more. Some of the results follow.
Listing of entries alongside the reported Percent Effect.
Answer format: numeric, % implied, no suffix.

                                chem_smiles  outcome_measure  endpoint_value
0  Cc1ccc(C(=O)NCCCN(C)S(C)(=O)=O)cc1-n1cccc1   Percent Effect           108.6

Continue with the next compound.
Value wanted: Percent Effect (Wolbachia pipientis) of entry Cc1ccc(C(=O)NCCCNS(C)(=O)=O)cc1C 117.8

###

Test system: Wolbachia pipientis
method.description: Anti-Wolbachia Cell-Based Screen
Format: functional
Set-up: scale not given: in the data most compounds retested in dose-response had high values
conditions: 5 µM
About 13,000 (27%) of roughly 48,000 compounds showed an effect of 50% or more. Some of the results follow.
outcome.measure: Percent Effect (%)
Answer format: numeric, % implied, no suffix.

Observe how each entry below is paired with its result.
                                   compound  outcome_measure  endpoint_value
0  CN1C(=O)CC(N(C)Cc2nc3ccccc3c(=O)[nH]2)C1=O (centres undefined)   Percent Effect          -8.963
1  c1cc(-c2c[nH]c([C@@H]3COCCN3Cc3ncc[nH]3)n2)ccn1   Percent Effect           -5.75
2  N#Cc1ccsc1N1CCC(Sc2ncc[nH]2)C1=O (centres undefined)   Percent Effect           95.53
3               COCCN(C)c1ccc(NCc2cscn2)nc1   Percent Effect           1.249
4   CN(Cc1ccc(C(=O)O)cc1)C(=O)c1sccc1OC(F)F   Percent Effect           7.137

Continue with the next compound.
Value wanted: Percent Effect (Wolbachia pipientis) of entry O=C1CC2(CCN(Cc3ccc(C(F)(F)F)nc3)CC2)CN1 -10.7

###

System: Wolbachia pipientis
method.description: Anti-Wolbachia Cell-Based Screen
Format: functional
Design: scale not given: in the data most compounds retested in dose-response had high values
conditions: 5 µM
The whole screen tested about 48,000 compounds, of which about 13,000 (27%) showed an effect of 50% or more. Some of the results follow.
outcome.measure: Percent Effect (%)
Answer format: numeric, % implied, no suffix.

Percent Effect lookup needed for CN1CCN(C(=O)[C@H]2C[C@@H]3CCN(c4ncc(F)cn4)C[C@@H]3O2)CC1.O=C(O)C(F)(F)F , thanks. -9.48

###

System: Wolbachia pipientis
method.description: Anti-Wolbachia Cell-Based Screen
Type: functional
Parameters: scale not given: in the data most compounds retested in dose-response had high values
conditions: 5 µM
About 13,000 (27%) of roughly 48,000 compounds showed an effect of 50% or more. This is one part of the list.
Listing of entries alongside the reported Percent Effect.
Answer format: numeric, % implied, no suffix.

                                   compound  target_or_test_system  outcome_measure  endpoint_value
0  COCC1CC2(CCN(Cc3nccs3)CC2)CN1Cc1ccccn1.O=C(O)C(F)(F)F.O=C(O)C(F)(F)F.O=C(O)C(F)(F)F (stereo not given)    Wolbachia pipientis   Percent Effect           106.7
1   COc1ccc2c(C)c(C(=O)NCCCc3csc(N)n3)oc2c1    Wolbachia pipientis   Percent Effect          -14.38
2  CC(CN1CCOCC1)NC(=O)c1cccc2cn[nH]c12 (stereo not given)    Wolbachia pipientis   Percent Effect           6.229
3  O=C(NCc1cn2c(n1)CN(Cc1nccs1)CC2)C1CCC1.O=C(O)C(F)(F)F    Wolbachia pipientis   Percent Effect          -3.871

Continue with the next compound.
Value wanted: Percent Effect (Wolbachia pipientis) of entry O=C(NCc1cnc2n1CCN(CC1CCOCC1)C2)c1ccno1.O=C(O)C(F)(F)F -43.24
